Test system: U251 CNS
PROTOCOL SUMMARY: NCI tumour cell line growth inhibition, 48 h
REPORTED METRIC: TGI

Please review the following examples before continuing.
In [3]: df
Out[3]:
                                   compound  reported_metric  obs_value
0  NC(=O)c1ccc(S(=O)(=NS(=O)(=O)c2ccccc2)c2ccc(C(N)=O)cc2)cc1              TGI   > 100 µM
1  Cc1nc(C)c(C(=O)NNC(=O)c2ccccc2)cc1C(=O)NNC(=O)c1ccccc1              TGI   > 100 µM
2       O=[P+](O)c1cc2c3ccccc3ccc2c2ccccc12              TGI   > 100 µM
3         CCN(Cc1cccc(C)c1)c1ccc(CO)c(Cl)c1              TGI    16.8 µM
4  CN1C(=O)[C@](C)(Cc2ccc(F)cc2)N(C(=O)OC(C)(C)C)[C@@H]1C(C)(C)C              TGI   > 100 µM
5  CC(C(=O)C(C)O[Si](c1ccccc1)(c1ccccc1)C(C)(C)C)=P(c1ccccc1)(c1ccccc1)c1ccccc1 (stereo not given)              TGI    14.1 µM
6  C(=N\Nc1nnc(-c2nnc(N/N=C/c3ccccc3)o2)o1)/c1ccccc1              TGI    > 10 µM
7    O=C1/C(=C/c2ccc(Cl)cc2)COc2ccc(Br)cc21              TGI   > 100 µM
8       Oc1[nH]c2ccccc2c1N=NC(=S)NCc1ccccn1              TGI    6.22 µM

Let us move to another entry and its TGI.
TGI measured on "CCOC(=O)CCN1C(=O)c2c(NC(=O)C(=O)O)cccc2S1(=O)=O" = > 100 µM
